# System Name: T1, CD3ε homodimer protein (human, UniProt P07766 23-126, limits assumed, sulfo-tag or biotin label in some ECL assays)
# T1 construct: also called human CD3ε homodimer protein; CD3 (CD3ε)
# T1 sequence (P07766 23-126 limits assumed): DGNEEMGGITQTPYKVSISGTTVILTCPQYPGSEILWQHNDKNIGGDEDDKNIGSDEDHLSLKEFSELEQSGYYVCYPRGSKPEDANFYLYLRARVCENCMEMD
# Assay Remarks: SPR, CD3ε homodimer on chip;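 note: biacore SPR with antibody variants flowed as analyte over amine-coupled CD3ε homodimer on a CM chip, bound amount of each single-residue H chain variant over that of parent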
// values below are reported ratio of amounts bound vs CE115HA000
Please reply with the number alone, leaving off any unit.

*Q* Look up ratio of amounts bound vs CE115HA000 for this binder: CE115HA000 A52aS (antibody, name in Kabat numbering, V domains shown) VH: QVQLVESGGGVVQPGRSLRLSCAASGFTFSNAWMHWVRQAPGKGLEWVAQIKSKSNNYATYYAESVKGRFTISRDDSKNSLYLQMNSLKTEDTAVYYCRYVHYGAYYGVDAWGQGTTVTVSS VL: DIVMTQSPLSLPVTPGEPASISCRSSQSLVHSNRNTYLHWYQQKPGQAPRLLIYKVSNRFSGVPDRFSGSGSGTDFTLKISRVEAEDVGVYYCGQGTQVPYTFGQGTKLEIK
*A* 1.05

*Q* Please give the measured ratio of amounts bound vs CE115HA000 for this binder: CE115HA000 Y58S (antibody, name in Kabat numbering, V domains shown) VH: QVQLVESGGGVVQPGRSLRLSCAASGFTFSNAWMHWVRQAPGKGLEWVAQIKAKSNNYATSYAESVKGRFTISRDDSKNSLYLQMNSLKTEDTAVYYCRYVHYGAYYGVDAWGQGTTVTVSS VL: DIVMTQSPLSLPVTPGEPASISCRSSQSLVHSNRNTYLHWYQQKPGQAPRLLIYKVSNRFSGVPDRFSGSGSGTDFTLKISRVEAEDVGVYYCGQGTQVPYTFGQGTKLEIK
*A* 0.18

*Q* Quick check: ratio of amounts bound vs CE115HA000 of CE115HA000 Y55G (antibody, name in Kabat numbering, V domains shown) VH: QVQLVESGGGVVQPGRSLRLSCAASGFTFSNAWMHWVRQAPGKGLEWVAQIKAKSNNGATYYAESVKGRFTISRDDSKNSLYLQMNSLKTEDTAVYYCRYVHYGAYYGVDAWGQGTTVTVSS VL: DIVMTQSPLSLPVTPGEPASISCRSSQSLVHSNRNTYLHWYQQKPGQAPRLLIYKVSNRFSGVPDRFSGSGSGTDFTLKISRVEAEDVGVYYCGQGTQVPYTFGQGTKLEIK ?
*A* 0.55
